# assayed system: T1, human BCMA on BCMA expressing cell lines (human, UniProt Q02223 1-184)
# T1 sequence: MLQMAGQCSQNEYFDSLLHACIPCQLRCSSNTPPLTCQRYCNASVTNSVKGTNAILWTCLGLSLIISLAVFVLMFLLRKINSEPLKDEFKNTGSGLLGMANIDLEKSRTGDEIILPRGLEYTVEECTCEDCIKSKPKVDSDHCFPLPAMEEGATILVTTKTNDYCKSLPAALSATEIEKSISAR
# assay protocol: cell-based or functional assay
measurement name: TDCC EC50 (EJM cells) (nM)
Answers are plain numbers, in nM.

Before answering, review these 3 worked examples.
| binder | TDCC EC50 (EJM cells) [nM] |
| --- | --- |
| BCMA targeting trispecific protein 01H01 (other, not shown: large carriers; small tags and cut ends, trispecific) VHH: EVQLVESGGGLVQPGRSLTLSCAASTNIGSISPMGWYRQAPGKQRELVAAIHGQSTLYADSVKGRFTISRDNAKNSIYLQMNSLRPEDTALYYCNKVPWGDYHPQNVYWGQGTQVTVSS | 0.118 |
| BCMA targeting trispecific protein 01F12 (other, trispecific; not shown: anti-albumin domain, anti-CD3 domain and the linkers of the trispecific; the C-terminal His6 that follows them is left out) VHH: EVQLVESGGGLVQPGRSLTLSCAASTNIFRISPMGWYRQAPGKQRELVAAIHGDSTLYADSVKGRFTISRDNAKNSIYLQMNSLRPEDTALYYCNKVPWGRYHPRNVYWGQGTQVTVSS | 0.392 |
| BCMA targeting trispecific protein 02F03 (other, not shown: large carriers; small tags and cut ends, trispecific) VHH: EVQLVESGGGLVQPGRSLTLSCAASTNIFSIYPMGWYRQAPGKQRELVAAIHGSSTLYADSVKGRFTISRDNAKNSIYLQMNSLRPEDTALYYCNKVPWGDYHPKNVYWGQGTQVTVSS | 0.0245 |

Ask | If you can, please state the reported TDCC EC50 (EJM cells) value of BCMA targeting trispecific protein 01C08 (other, not shown: large carriers; small tags and cut ends, trispecific) VHH: EVQLVESGGGLVQPGRSLTLSCAASTNIFSNSPMGWYRQAPGKQRELVAAIHGGSTLYADSVKGRFTISRDNAKNSIYLQMNSLRPEDTALYYCNKVPWGDYHPRNVHWGQGTQVTVSS .
Reply | 0.0457
